The reader will find reported EC50 values listed item by item below.
system_name: T1, cynomolgus monkey CD73 (on transfected CHOK1 cells) (cynomolgus monkey, UniProt A0A2K5V5U7 27-549)
T1 construct: whole, on cells; also called CHOK1-cCD73; CHOK1-CCD73
T1 sequence: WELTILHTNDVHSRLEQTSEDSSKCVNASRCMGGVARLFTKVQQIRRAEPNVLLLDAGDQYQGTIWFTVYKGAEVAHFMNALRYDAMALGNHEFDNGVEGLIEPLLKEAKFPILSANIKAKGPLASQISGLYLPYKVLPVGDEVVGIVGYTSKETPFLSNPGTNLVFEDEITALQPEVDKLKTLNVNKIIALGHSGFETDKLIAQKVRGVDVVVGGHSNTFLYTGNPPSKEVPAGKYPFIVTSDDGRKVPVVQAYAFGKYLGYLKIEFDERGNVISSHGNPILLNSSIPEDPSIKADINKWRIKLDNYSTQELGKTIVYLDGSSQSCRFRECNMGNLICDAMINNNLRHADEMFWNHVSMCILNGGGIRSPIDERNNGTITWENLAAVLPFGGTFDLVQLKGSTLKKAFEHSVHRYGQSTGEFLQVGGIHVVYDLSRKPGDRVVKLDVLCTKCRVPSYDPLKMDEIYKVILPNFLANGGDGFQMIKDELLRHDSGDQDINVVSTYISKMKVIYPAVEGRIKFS
assay_notes: FACS on CHOK1-cCD73 cells
Express it in nM; write the number only.

mAb032 (clone 56F12H8), murine anti-CD73 antibody (antibody, V domains shown, Purified from hybridoma supernatant) VH: EVQLVESGGDLVKPGGSLKLSCAASGFTFSTHGMSWVRQTPDKRLEWVAIISSDRSDIDYTDNVKGRFTISRDNGKNTLYLQMSSLKSEDTAIYHCARHRGYDGFYYAMDYWGQGTSVTVSS VL: DILMTQSPSSLTVTAGEKVTMSCRSSQSLLNSGNQKNYLTWYQQRPGRPPKLLIYWASTRISGVPDRFAGSGSGTDFTLTISIVQAEDLAVYYCQNDYSYPLTFGSGTKLELR    0.7

Look up EC50: mAb042 (clone 77B9A3), murine anti-CD73 antibody (antibody, V domains shown, Purified from hybridoma supernatant) VH: QVQLQQSGAGLVKPGASVKLSCKASGYTFTNYWMHWVKQRPGQGLEWIGMIHPNSGSTNNNEKFKNKATLTVDKSSNTAYMQLSSLTSEDSAVYYCARFFFGGYPHYYALDYWGQGTSVTVSS VL: DIVMTQSQKFMSTTVGDRVSITCKASQNVGTAVAWYQQKPGQSPKLLIYSASDRYTGVPDRLTGSGSGTDFTLTISNVQSEDLADYFCQQYSSFPLFTFGSGTKLVIQ
3.9

These measurements were taken from patent US20220098319A1.
